target: CYP2C9 (Homo sapiens, UniProt P11712); experiment: Inhibition of CYP2C9 (unknown origin) at 3 uM relative to control; type: ADME
Sequence (P11712 whole entry): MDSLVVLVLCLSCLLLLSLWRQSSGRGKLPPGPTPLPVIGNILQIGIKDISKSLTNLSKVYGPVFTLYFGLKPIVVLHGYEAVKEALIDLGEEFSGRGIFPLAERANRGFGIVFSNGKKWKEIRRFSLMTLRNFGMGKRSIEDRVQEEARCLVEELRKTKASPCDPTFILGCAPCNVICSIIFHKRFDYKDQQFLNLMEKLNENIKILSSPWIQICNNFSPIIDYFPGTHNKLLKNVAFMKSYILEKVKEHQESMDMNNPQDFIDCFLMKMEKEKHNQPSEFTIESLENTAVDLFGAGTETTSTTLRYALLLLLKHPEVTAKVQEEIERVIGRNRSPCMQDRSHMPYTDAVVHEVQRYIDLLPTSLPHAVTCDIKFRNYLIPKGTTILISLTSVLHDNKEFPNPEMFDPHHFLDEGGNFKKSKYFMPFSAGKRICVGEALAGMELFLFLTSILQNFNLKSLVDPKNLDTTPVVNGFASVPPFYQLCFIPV
Each entry below carries its recorded inhibition at 3 µM.
Respond numerically; units are % and should not be typed.

Solved entries:
molecule: O=S(=O)(Nc1cnc2ccccc2c1)c1ccccc1C(F)(F)F
recorded measurement: 39
--
molecule: N#Cc1ccc(NS(=O)(=O)c2ccccc2C(F)(F)F)cc1Cl
recorded measurement: 92
--
molecule: N#Cc1cccc(NS(=O)(=O)c2ccccc2C(F)(F)F)c1
recorded measurement: 28

Any idea what its inhibition at 3 µM is? The compound is N#Cc1ccccc1NS(=O)(=O)c1ccccc1C(F)(F)F
11

Bench note: what inhibition at 3 µM did O=S(=O)(Nc1cncc(Br)c1)c1ccccc1C(F)(F)F show?
38

Could you share which inhibition at 3 µM value was measured for O=S(=O)(Nc1cccc(OC(F)(F)F)c1)c1ccccc1C(F)(F)F ?
81

inhibition at 3 µM lookup needed for N#Cc1ccc(NS(=O)(=O)c2ccccc2C(F)(F)F)c(Cl)c1 , thanks.
82

Look at this compound and give its reported inhibition at 3 µM. N#Cc1cc(NS(=O)(=O)c2ccccc2C(F)(F)F)ccc1Cl
76
